system-tested: recombinant NS3 protease with the NS4A peptide cofactor … (molar ratio enzyme:cofactor 1:100) (hepatitis C virus genotype 1b)
protocol-summary: cell-based or functional assay
*1 amine or outer side, *2 acyl side, *3 side chain or, on linkers, in order; H or OH if unused. Primed or numbered codes have the meaning given here. Where no end group is shown, it is not given here. [ ]: non-standard residue; d: D form. Pro((4-tert-butyl-phenyl)-methoxy) = Pro(4-R13), R13 = (4-tert-butyl-phenyl)-methoxy; Pro(1-NpCH2O)″ = Pro(4-R13), R13 = naphthalen-1-ylmethoxy; Pro(2-NpCH2O)″ = Pro(4-R13), R13 = naphthalen-2-ylmethoxy; Glutaryl = O=C(CCCC(=O)[*:2])[*:1]; Pro(4-OBn) = Pro(4-R13), R13 = OBn; Pro(O-Bn) = Pro(4-R13), R13 = O-Bn; NMeI = CC[C@H](C)[C@H](NC)C(=O)O; Pro(Bn) = Pro(4-R13), R13 = Bn; Chg = N[C@H](C(=O)O)C1CCCCC1; Suc = O=C(CCC(=O)[*:2])[*:1]; code B = not defined here; Nva = CCC[C@H](N)C(=O)O; Ac3c = NC1(C(=O)O)CC1

binder	IC50 (µM)
Ac-IVP[Ac3c] (not fully specified (residue 3); printed as Ac-Ile-Val-Pro(1-NpCH2O)-Acca) [Compound 262 (Table 2): Ac-Ile-Val-Pro(1-NpCH2O)-Acca]	40
Ac-DDIV[Pro(4-(Ph(CH2)3))][Nva] [Compound 217 (Table 2): Ac-Asp-Asp-Ile-Val-Pro(Ph(CH2)3)-Nva]	3
Ac-DDIV[Pro(Bn)][Nva] [Compound 216 (Table 2): Ac-Asp-Asp-Ile-Val-Pro(Bn)-Nva]	60
Suc-[NMeI]V[Pro(4-(1-NpCH2O))][Nva] [Compound 220 (Table 2): DAD-N(Me)Ile-Val-Pro(1-NpCH2O)-Nva]	31
Ac-IVP[Nva] (not fully specified (residue 3); printed as Ac-Ile-Val-Pro(1-NpCH2O)-Nva) [Compound 225 (Table 2): Ac-Ile-Val-Pro(1-NpCH2O)-Nva]	45
Suc-IV[Pro(4-(1-NpCH2O))][Nva] [Compound 221 (Table 2): DAD-Ile-Val-Pro(1-NpCH2O)-Nva]	22
Ac-DIV[Pro(4-(1-NpCH2O))][Nva] [Compound 219 (Table 2): Ac-Asp-Ile-Val-Pro(1-NpCH2O)-Nva]	2.3
Glutaryl-IVP[Ac3c] (not fully specified (residue 3); printed as DAE-Ile-Val-Pro(1-NpCH2O)-Acca) [Compound 237 (Table 2): DAE-Ile-Val-Pro(1-NpCH2O)-Acca]	5.5
{code B}-IV[Pro(4-(1-NpCH2O))][Nva] (reading uncertain; also: further groups not given here, printed as B-Ile-Val-Pro(1-NpCH2O)-Nva) [Compound 224 (Table 2): B-Ile-Val-Pro(1-NpCH2O)-Nva, B drawn]	56
Ac-[Chg]VPC (not fully specified (residue 3); printed as Ac-Chg-Val-Pro(O-Bn)-Cys) [Compound 261 (Table 2): Ac-Chg-Val-Pro(O-Bn)-Cys]	28
Ac-DDIV[Pro((4-tert-butyl-phenyl)-methoxy)][Nva] [Compound 209 (Table 2): Ac-Asp-Asp-Ile-Val-Pro((4-tert-butyl-phenyl)-methoxy)-Nva]	2.6
{code B}-IV[Pro(4-(1-NpCH2O))][Nva] (reading uncertain; also: further groups not given here, printed as B-Ile-Val-Pro(1-NpCH2O)-Nva) [Compound 223 (Table 2): B-Ile-Val-Pro(1-NpCH2O)-Nva, B drawn]	51
Glutaryl-IV[Pro(4-(1-NpCH2O))][Nva] [Compound 222 (Table 2): DAE-Ile-Val-Pro(1-NpCH2O)-Nva]	20
Ac-DDIV[Pro(4-(Ph(CH2)3))][Nva] [Compound 230 (Table 2): Ac-Asp-Asp-Ile-Val-Pro(Ph(CH2)3)-Nva]	3.3
Ac-D[dV]IVPC [Compound 274 (Table 2): Ac-Asp-D-Val-Ile-Val-Pro(R13 = H)-Cys]	7.6
Ac-DDIV[Pro(1-NpCH2O)″][Nva] [Compound 207 (Table 2): Ac-Asp-Asp-Ile-Val-Pro(1-NpCH2O)-Nva]	0.39
Ac-DDIVP[Nva] [Compound 273 (Table 2): Ac-Asp-Asp-Ile-Val-Pro(R13 = H)-Nva]	17.5
Ac-D[dE]IV[Pro(4-OBn)]C [Compound 260 (Table 2): Ac-Asp-D-Glu-Ile-Val-Pro(O-Bn)-Cys]	0.18
Ac-DDIV[Pro(O-Bn)][Nva] [Compound 201 (Table 2): Ac-Asp-Asp-Ile-Val-Pro(O-Bn)-Nva]	7.2
Ac-DDIV[Pro(2-NpCH2O)″][Nva] [Compound 208 (Table 2): Ac-Asp-Asp-Ile-Val-Pro(2-NpCH2O)-Nva]	0.71
